# Tested on: SK-OV-3 ovarian
# ASSAY METHOD TEXT: NCI-60 one-dose screen, 48 h
# MEASUREMENT SETUP: 10 µM unless noted
The panel holds about 83,000 compounds, 20% with a hit somewhere; the sample as a whole holds those more often. The source made the active and inactive calls. Rule for the calls: active = growth percent below 10; inactive = the rest.
// classify into yes (active), no (inactive)

In: Tell me the recorded outcome of this test for "CCc1cccc(-c2ccccc2)c1" .
Out: no

In: Dear colleague, could you share the recorded outcome for "COc1cc(NC(=O)c2cc(OC)c3ccn(C)c3c2)cc2c1C[C@]1(C)CC[C@@H](O)C(C)(C)[C@H]1O2" when you have a moment?
Out: no

In: Please let me know the test result on file for "O=[N+]([O-])c1cccc2cc(S(=O)(=O)O)ccc12" .
Out: no

In: Hey, what did the test say about "COc1ccc(/C(=C/c2cc(OC)c(OC)c(OC)c2)[N+](=O)[O-])cc1" ?
Out: no

In: # lookup: test call for "CN(CCNCc1ccccn1)CCNCc1ccccn1"
Out: yes

In: Hi team, can someone confirm the assay call for "COc1cc(-c2nc3sc(C)cn3c2/C=C2\C(=O)Nc3ccccc32)c(Br)c(OC)c1OC" ?
Out: no

In: State the result this test recorded for "CCCCCCCCCCCCCCCC(=O)NS(=O)(=O)OC[C@H]1O[C@@H](n2cnc3c(N)ncnc32)[C@H](O)[C@@H]1O" .
Out: yes

In: Fill in: this test's call for COc1ccc2c(c1)OC(N)=C(C#N)C2c1ccc(F)c(F)c1 (stereo unspecified) is ___
Out: no

In: # fetch the recorded call for "COc1cc(-c2nc3ccccc3s2)ccc1OCc1nc2n(n1)S(=O)(=O)c1ccccc1N2c1ccccc1" here
Out: no

In: State the result this test recorded for "Cc1cccc(Cc2cnc(NC(=O)CCc3ccc(C)o3)s2)c1" .
Out: no

In: Please state the recorded outcome for this molecule: "COc1cc(NS(C)(=O)=O)ccc1Cc1c2ccccc2nc2ccccc12"
Out: no

In: What call does the record list for "O=C(Nc1ccc(-n2cc(-c3ccncc3)c(-c3ccc(O)c(Cl)c3)n2)cc1)Nc1ccc(Cl)c(C(F)(F)F)c1" ?
Out: no

In: Outcome logged for "COc1ccc(C(=O)NC(=O)Nc2ccc3c(c2)NC(=O)/C3=C\c2[nH]c(C)c(C(=O)O)c2C)c(F)c1" in this assay:
Out: no

In: Given "Cc1cc(NC(=O)c2cccc(C(F)(F)F)c2)ccc1-n1ccc2c(NC(=O)c3ccccc3)nccc21" , state the outcome it received in this test.
Out: no

In: For "O=[N+]([O-])c1ccccc1NC1c2ccccc2Oc2ccccc21" , what call appears in the results of this test?
Out: no

In: Tell me the assay call for "C=C1C(=O)O[C@H]2[C@H]1CC/C(COC(=O)c1ccc(C#N)cc1)=C\CC[C@@]1(C)O[C@@H]21" please.
Out: no

In: For CCC1S/C(=N\N=C(/C)c2cc3ccccc3o2)N(c2ccccc2)C1=O (stereo unspecified) , which call appears in the assay record?
Out: no

In: Could you check what this test reported for "COc1ccc2c(c1)C(=O)/C(=C/c1ccc(OCC(=O)c3ccc(Cl)cc3)cc1)O2" ?
Out: no

In: Given "O=c1c2ccccc2sc2c(NCCCNCCO)nc3ccccc3c12" , state the outcome it received in this test.
Out: no

In: Could you kindly confirm the outcome this assay logged for Cc1cc(C)c(O)c(C(=O)CC(Br)C(=O)O)c1 (stereo unspecified) ?
Out: no

In: Look up the recorded call for "COc1cc(NC(=O)C#Cc2ccccc2)c(OC)cc1Cl" in this test.
Out: no

In: What did this assay record as the result for "COc1ccc(-c2nn(-c3ccc(NC(=O)c4cc(Cl)cc(Cl)c4)cc3)cc2-c2ccncc2)cc1Cl" ?
Out: no

In: Please let me know the test result on file for "COc1ccc(/C=C2\CS(=O)(=O)C/C(=C\c3ccc(OC)cc3)C2=O)cc1" .
Out: no

In: I would be grateful if you could indicate the recorded call for "COc1ccc(OC)c(NCC(=O)n2nc(/C=C\c3ccc(O)c(OC)c3)cc2/C=C\c2ccc(O)c(OC)c2)c1" .
Out: yes

In: In this assay, the call recorded for CC(C(=O)O)N1C(N)=NNC1c1ccccc1O (stereo unspecified) was what?
Out: no

In: Each molecule tested received a call. Report the one for "Cc1[nH]c2ccc(F)cc2c1CCNC(=O)C1CCN(C(=O)c2ccc(-c3ccccc3)cc2)CC1" .
Out: no

In: Recorded call for "Cc1cc(-c2ccccc2)nc2ccccc12" ?
Out: no

In: Recorded test call requested for "COc1ccc(-c2nnc(SCC(=O)Nc3ccc(C(=O)/C=C/c4ccccc4)cc3)o2)cc1OC"
Out: no

In: Test call, this molecule: "COc1ccc(-c2cc(-c3nnc(SC/C(=N\O)c4ccccc4)n3-c3ccccc3)c3ccccc3n2)cc1"
Out: no

In: Kindly provide the recorded test outcome for the following molecule: "CCCCOc1c(N)cccc1C(=O)OCCN(CC)CC"
Out: no

In: Identify the outcome logged in this assay for the molecule shown: "COc1ccc2c(-c3ccc(F)cc3)c(C#N)c(=NC(C)=O)oc2c1"
Out: no

In: Please state the recorded outcome for this molecule: CC12CCC3C(CCC4CC(O)CCC43C)C1C/C(=C/O)C(=O)O2 (stereo unspecified)
Out: no

In: Outcome? "O=c1c2ccccc2sc2c(NCCN3CCOCC3)nc3ccccc3c12"
Out: no

In: Test call for this molecule, please: "CCCCC(=O)Nc1nc2ccc(SCCC)cc2s1"
Out: no

In: Recorded test call requested for "CC(C)(CCN=C(N)Nc1ccccn1)c1ccc(C(F)(F)F)cc1"
Out: no

In: Recorded test call requested for "Cc1c(NC(=O)c2sc3nc4c(cc3c2N)CN(Cc2ccccc2)CC4)cccc1C(F)(F)F"
Out: no

In: Query: recorded result category for COc1cc([C@@H]2c3cc4c(cc3C(OC3O[C@@H]5COC(C)O[C@H]5[C@H](O)[C@H]3O)C3COC(=O)[C@@H]32)OCO4)cc(OC)c1O (stereo partly specified) in this test
Out: no

In: Hi, sorry to bother you, what did the test record for COc1ccc(C[C@H](N)C(=O)N[C@@H]2[C@@H](CO)OC(n3cnc4c(N(C)C)ncnc43)[C@@H]2O)cc1 (stereo partly specified) ?
Out: yes

In: Hi, sorry to bother you, what did the test record for "CCN(CC)CC(=O)Nc1c(C)cccc1C" ?
Out: no

In: # fetch the recorded call for "S=c1ssnc1-c1ccccn1" here
Out: no

In: // param item: "Nc1nc(Cl)cc(NCc2ccc(CNc3cc(Cl)nc(N)n3)cc2)n1" ; yields the recorded call
Out: no
